Test: Antiproliferative activity against human RPE-1 cells assessed as reduction in cell viability incubated for 72 hrs by CelltiterGlo luminescent assay
Format: toxicity, cell-based
Conditions: RPE-1 cells (TERT-RPE1)
Classes (IC50 at 72 h): LOW (below 10 nM), MID (10 nM to below 50 nM), HIGH (50 nM or more)

Previously resolved entries follow.
{"MOLECULE": "CCN(c1ccc2c(ccn2C)c1)S(=O)(=O)c1cc(OC)c(OC)c(OC)c1", "GROUP LABEL": "HIGH"}
{"MOLECULE": "COc1cc(S(=O)(=O)N(CC#N)c2ccc3c(c2)c(C(N)=O)cn3C)cc(OC)c1OC", "GROUP LABEL": "MID"}
{"MOLECULE": "COc1cc(S(=O)(=O)N(C)c2ccc3c(c2)c(C=O)cn3C)cc(OC)c1OC", "GROUP LABEL": "MID"}

Please report the category associated with COc1cc(S(=O)(=O)N(C)c2ccc3c(ccn3C)c2)cc(OC)c1OC , nothing else. MID

Please report the category associated with COc1cc(S(=O)(=O)N(CC#N)c2ccc3c(c2)c(C#N)cn3C)cc(OC)c1OC , nothing else. HIGH

Please report the category associated with CC(=O)O[C@@]12CO[C@@H]1C[C@H](O)[C@@]1(C)C(=O)[C@H](O)C3=C(C)[C@@H](OC(=O)[C@H](O)[C@@H](NC(=O)OC(C)(C)C)c4ccccc4)C[C@@](O)([C@@H](OC(=O)c4ccccc4)[C@H]21)C3(C)C [DOCETAXEL ANHYDROUS] , nothing else. LOW

Please report the category associated with CCC1=C[C@@H]2CN(C1)Cc1c([nH]c3ccccc13)[C@@](C(=O)OC)(c1cc3c(cc1OC)N(C)[C@H]1[C@@](O)(C(=O)OC)[C@H](OC(C)=O)[C@]4(CC)C=CCN5CC[C@]31[C@@H]54)C2 , nothing else. LOW

Please report the category associated with COc1cc(S(=O)(=O)N(CC#N)c2ccc3c(c2)c(C=O)cn3C)cc(OC)c1OC , nothing else. MID

Please report the category associated with COc1cc(S(=O)(=O)Nc2ccc3c(c2)c(C(N)=O)cn3C)cc(OC)c1OC , nothing else. HIGH

Please report the category associated with COc1cc(S(=O)(=O)N(CC#N)c2ccc3c(ccn3C)c2)cc(OC)c1OC , nothing else. HIGH

Please report the category associated with COc1cc(S(=O)(=O)Nc2ccc3c(c2)c(C#N)cn3C)cc(OC)c1OC , nothing else. HIGH

Please report the category associated with COc1cc(S(=O)(=O)Nc2ccc3c(ccn3C)c2)cc(OC)c1OC , nothing else. LOW

Please report the category associated with COc1cc(S(=O)(=O)N(C)c2ccc3c(c2)c(C(N)=O)cn3C)cc(OC)c1OC , nothing else. MID

Please report the category associated with CC[C@]1(O)C[C@H]2CN(CCc3c([nH]c4ccccc34)[C@@](C(=O)OC)(c3cc4c(cc3OC)N(C=O)[C@H]3[C@@](O)(C(=O)OC)[C@H](OC(C)=O)[C@]5(CC)C=CCN6CC[C@]43[C@@H]65)C2)C1 , nothing else. LOW

Please report the category associated with COc1cc(S(=O)(=O)N(C)c2ccc3c(c2)c(C#N)cn3C)cc(OC)c1OC , nothing else. MID
